System: EKVX NSCLC
Test: NCI tumour cell line growth inhibition, 48 h
Observation Type: TGI
Report field: quantity (unit follows the number).

Some molecules with known TGI results, for comparison:
[
  {
    "Molecule": "FC(F)(F)CN1CCN(CCn2c(C(F)(F)F)cc3c(Cl)ncnc32)CC1",
    "TGI": "40.4 µM"
  },
  {
    "Molecule": "Cn1cc(-c2cc(N)n3nc(-c4cn(C)c5ccccc45)cc3n2)c2cc(Cl)ccc21",
    "TGI": "37.4 µM"
  },
  {
    "Molecule": "CN(C)CCOc1ccc(C(=O)C2[C@H](c3ccc(Cl)cc3)[C@@H](c3ccccc3)NC23C(=O)Nc2ccccc23)cc1 (some centres undefined)",
    "TGI": "6.21 µM"
  }
]

Find the measured TGI of O=c1[nH]c2ccccc2cc1CSc1ccc(Nc2nccc(-c3ccc(Cl)cc3)n2)cc1 and report it.
4.77 µM
